- target of assay: IDO1 (Homo sapiens, UniProt P14902)
- Sequence (P14902 whole entry): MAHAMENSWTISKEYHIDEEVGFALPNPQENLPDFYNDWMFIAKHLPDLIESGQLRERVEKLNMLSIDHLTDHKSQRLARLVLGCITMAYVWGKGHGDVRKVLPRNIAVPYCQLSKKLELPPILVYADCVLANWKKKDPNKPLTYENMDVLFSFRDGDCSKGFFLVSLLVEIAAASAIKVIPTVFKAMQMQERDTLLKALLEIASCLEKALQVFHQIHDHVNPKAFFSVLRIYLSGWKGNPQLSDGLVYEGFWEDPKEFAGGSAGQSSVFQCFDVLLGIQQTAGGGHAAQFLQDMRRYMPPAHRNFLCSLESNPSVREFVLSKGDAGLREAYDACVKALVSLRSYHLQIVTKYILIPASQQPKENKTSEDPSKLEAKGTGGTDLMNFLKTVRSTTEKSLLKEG
- assay overview: IDO1 cellular assay in Hela cells stimulated with IFNγ
- Format: cell-based
- condition description: IFNγ 100 ng/mL, 300 uM L-tryptophan, about 48 hours, fluorescence readout
endpoint name: log10 of IC50 (log10 of the value in nM)
Values are log10 of IC50 in nM.

> print(dat)
                                   compound                      target.of.assay  endpoint.name  numeric.readout
1  O=C(Nc1ccc(C2(C(=O)Nc3ccc(F)cc3)CCC2)cn1)c1cc(Cl)ccc1F  IDO1 (Homo sapiens, UniProt P14902)  log10 of IC50             1.15
2  O=C(Nc1ccc(C2(C(=O)Nc3ccc(F)cc3)CCC2)cn1)c1ccnc(C(F)(F)F)c1  IDO1 (Homo sapiens, UniProt P14902)  log10 of IC50             1.45

Ask: Complete the entry with log10 of IC50 for O=C(Nc1ccc(C2(C(=O)Nc3ccc(F)cc3)CCC2)cn1)C1CCCC(F)(F)C1 (centres unmarked)
Result: 1.45

Ask: Complete the entry with log10 of IC50 for Cc1cccc(C(=O)Nc2ccc(C3(C(=O)Nc4ccc(F)nc4)CCC3)cn2)n1
Result: 1.63

Ask: Complete the entry with log10 of IC50 for CC(C)(C)OC(=O)Nc1ccc(C2(C(=O)Nc3ccc(F)cc3)CCC2)cn1
Result: 2.01

Ask: Complete the entry with log10 of IC50 for N#Cc1cncc(C(=O)Nc2ccc(C3(C(=O)Nc4ccc(F)cc4)CCC3)cn2)c1
Result: 2.24

Ask: Complete the entry with log10 of IC50 for O=C(CCC(F)(F)F)Nc1ccc(C2(C(=O)Nc3ccc(F)cc3)CCC2)cn1
Result: 1.86

Ask: Complete the entry with log10 of IC50 for N#Cc1cccc(C(=O)Nc2ccc(C3(NC(=O)c4ccc(Cl)nc4)CCC3)nc2)c1
Result: 1.54

Ask: Complete the entry with log10 of IC50 for CC(C)(C)CCC(=O)Nc1ccc(C2(C(=O)Nc3ccc(F)cc3)CCC2)cn1
Result: 1.98

Ask: Complete the entry with log10 of IC50 for O=C(Nc1ccc(C2(NC(=O)c3ccc(Cl)nc3)CCC2)nc1)c1cncc(Cl)c1
Result: 2.12

Ask: Complete the entry with log10 of IC50 for N#Cc1ccc(C(=O)Nc2ccc(C3(NC(=O)c4ccc(Cl)nc4)CCC3)nc2)cc1
Result: 3.30

* * *

Here, each record is paired with measured IC50 data.
- target of assay: IDO1 (Homo sapiens)
- assay overview: IDO1 human whole blood assay
- Format: cell-based
- Design: Human whole blood was drawn in sodium heparin coated tubes from healthy internal donors; from tissue; host or cells: human whole blood from healthy donors, stimulated with LPS and IFNγ
- condition description: LPS and IFNγ 100 ng/mL, 18 h, kynurenine by LC/MS/MS
Give the quantity in nM, number only.

> print(dat)
                                   compound  units.symbol  numeric.readout
1  O=C(Nc1ccc(C2(C(=O)Nc3ccc(F)cn3)CCC2)nc1)c1cccc(Cl)c1 [Example 37]            nM             1760
2  O=C(Nc1ccc(C2(C(=O)Nc3ccc(F)nc3)CCC2)cn1)C1CCCCC1 [Example 7]            nM             8560
3  O=C(Nc1ccc(C2(C(=O)Nc3ccc(F)cc3)CCC2)nc1)c1cccc(Cl)c1 [Example 36]            nM              252

Consider now this further compound.
Ask: Complete the entry with IC50 for O=C(Nc1ccc(C2(C(=O)Nc3ccc(F)cc3)CCC2)nc1CO)c1cccc(Cl)c1 [Example 55]
Result: 9
